B1: HDV Ribozyme (parent)
chain: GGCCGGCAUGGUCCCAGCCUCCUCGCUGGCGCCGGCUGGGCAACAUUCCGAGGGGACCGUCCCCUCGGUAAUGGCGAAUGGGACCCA

- Variants of: B1
- experimentalProtocol: self-cleavage, relative activity (ratio to wild type); higher = more cleavage; co-transcriptional
Dear colleague, classification is by self-cleavage, with ranges listed here: lower range (below 0.1), middle range (0.1 to below 0.7), upper range (0.7 or more)

                               chainsequence  qualitativelabel
 0  GGGCGGCAUGGUCCCAGCCUCCUCGCUGGCGCCGGCUGGGCAACAUUCCGAGGGGACCUUCCCCUCGGUAAUGGCGAAUGGGACCCA       upper range
 1  GGUCGGCAUGGUCCCAGCCUCCUCGCUGGCGCCGGCUGGGCAACAUUCCGAGGGGACCGUCCCCUCGCUAAUGGCGAAUGGGACCCA       upper range
 2  GGCCGGAAUGGUCCCAGCCUCCUCGCUGGCCCCGGCUGGGCAACAUUCCGAGGGGACCGUCCCCUCGGUAAUGGCGAAUGGGACCCA       upper range
 3  GGCCGGCAUGGUCCCAGCCUCCUCGCUGGCGCCGGCUGGGCAACAUUCCGAGGGGACAGUCCCCUCGGUAAUGGCGAAUGGGACGCA       upper range
 4  GGCCGGCAUGGUCCCAGCCUCCUCGCUGGCGCCGGCUGGGAAACAUUCCGAGGGGACCGUCCCCUCGGUAAUGGAGAAUGGGACCCA      middle range
 5  GGCCGGCAUGGUCCCAGCCUCGUCGCUGGCGCCGGCUGGGCAACAUUCCGAGGGGACCGUCCCCUCGGUACUGGCGAAUGGGACCCA      middle range
 6  GGCCGGCAUGGUCCCAGCCUACUCGCUGGCGCCGGCAGGGCAACAUUCCGAGGGGACCGUCCCCUCGGUAAUGGCGAAUGGGACCCA       lower range
 7  GGCCGGCAUGGUCCCAGCCUCCUCGCUGGCGCCAGCUGGGCAACAUUCCGAGGGGACCGUCCCCUCGGUAAUGGCGAAUGUGACCCA       lower range
 8  GGCCGGCAUGGUCCCAGCCUGCUCGCUGGCGCCGGCUGGGCAACAUUCCGAGGGGACGGUCCCCUCGGUAAUGGCGAAUGGGACCCA       lower range
 9  GGCCGGCAUGGUCCCAGCCUCCUCGCUGGGGCCGGCUGGGCAACAUUCCGAGGGGACGGUCCCCUCGGUAAUGGCGAAUGGGACCCA       lower range
10  CGCCGGCAUGGUCCAAGCCUCCUCGCUGGCGCCGGCUGGGCAACAUUCCGAGGGGACCGUCCCCUCGGUAAUGGCGAAUGGGACCCA       lower range
11  GGCCGGCAUGGUCCCAGCCUCCUCGCUGGCGCCGGCUGGGCAACAUUACGAGGGGACAGUCCCCUCGGUAAUGGCGAAUGGGACCCA       upper range
12  GGCCGGCAUGGUCCCAGCCUCCUCGCUGGCGCCGGCUGGGCAACAUUCCGAGGGGACCAGCCCCUCGGUAAUGGCGAAUGGGACCCA       upper range
13  GGCCGGCAUGGUCCCAGCCUCCUCGCUGGCGCCGGCUAGGCAACAUUCCGAGGGGACCGUCCCCUCGGUAAGGGCGAAUGGGACCCA       lower range
14  CGCCGGCAUGGUCCCUGCCUCCUCGCUGGCGCCGGCUGGGCAACAUUCCGAGGGGACCGUCCCCUCGGUAAUGGCGAAUGGGACCCA      middle range
15  GGCCGGCAUGGUCCCAGCCUCCUCGCUGGCGCCGGCUGGGCAACACUCCGAGGGGACCGUCACCUCGGUAAUGGCGAAUGGGACCCA      middle range
16  GGCCGGCAUGGUCCCAGCCUCCUCGCUGGCGCCGGCUGGACAACAUUCCGAGGGGACCGUCCCCUCAGUAAUGGCGAAUGGGACCCA       upper range
17  GGCCGGCAUGGUCCCAGCAUCCUCGUUGGCGCCGGCUGGGCAACAUUCCGAGGGGACCGUCCCCUCGGUAAUGGCGAAUGGGACCCA       upper range
18  GGCCGGCAUGGUCCCAGCCUCCUCGCUGGCGCCGGCUGGGCAACAUUCCGAGGAGACCGUCCCCUCGGUAAUGGCGAAUGGGAACCA      middle range
19  GGGCGGCAUGGUCCCAGCCUCCUCGCUGGCGCCGGCUGGGCUACAUUCCGAGGGGACCGUCCCCUCGGUAAUGGCGAAUGGGACCCA      middle range
20  GGCCGGCAUGGGCCCAGCCUCCUCGCUGGCGCCGGCUGGGCAACAUUCCGAGGGGACCGUCCCCUCGGUCAUGGCGAAUGGGACCCA      middle range
21  GGCCGGCAUGGUCCCAGCCUCCUCGCUGGCGCAGGCUGGGCAACAUUCCGAAGGGACCGUCCCCUCGGUAAUGGCGAAUGGGACCCA      middle range
22  GGCCGGCAUGGUCCCAGCCUCCUCGCUGCCGCCGGCUGGUCAACAUUCCGAGGGGACCGUCCCCUCGGUAAUGGCGAAUGGGACCCA       lower range
23  GGCCGGCAUGGUCCCAGCCUCCUCGCUGGCGCCGGCUGGGCAACAUUCCGAUCGGACCGUCCCCUCGGUAAUGGCGAAUGGGACCCA      middle range
24  GGCUGGCAUGGUCCCAGCCUCCUCGCUGGCGCCGGCUGGGCAACAUUCCGAGGGGACCGUCCCCUCGGUAACGGCGAAUGGGACCCA      middle range
25  GGCCGGAAUGGUCCCAGCCUCCUCGCUGGCGCCGGCUGGGCAACAUUCCGGGGGGACCGUCCCCUCGGUAAUGGCGAAUGGGACCCA      middle range
26  GGCCGGCAUGGUCCCAGCCUCCUCGCUGGCGCCGGCUAGGCGACAUUCCGAGGGGACCGUCCCCUCGGUAAUGGCGAAUGGGACCCA       lower range
27  GGCCGGCAUGGUCCCAGCCUCCUCGCUGGCGCCGGCUGGGCAACAUUCAGAGGGGACCCUCCCCUCGGUAAUGGCGAAUGGGACCCA       upper range
28  GGCCGGCAUGGUCCCAGCCUCCUCGCCGGCGCCGGCUGGGCAACAUUCCGAGGGGACCGUCCCCUCGGUAAUGGCGAAUGGGACCCC      middle range
29  UGCCGGCAUGGUCCCAGCCUCCUCGCUGGUGCCGGCUGGGCAACAUUCCGAGGGGACCGUCCCCUCGGUAAUGGCGAAUGGGACCCA      middle range
30  GGCCGGCAUGGUCCCAGCCUCCUCGCUGGCGCCGGCAGGGCAACAGUCCGAGGGGACCGUCCCCUCGGUAAUGGCGAAUGGGACCCA      middle range
31  GUCCGGCAUGGUCCCAGCCUCCUCGCUGGCGCCGGCUGGGCAAGAUUCCGAGGGGACCGUCCCCUCGGUAAUGGCGAAUGGGACCCA       lower range
32  GUCCGGCAUGGUCCCAGCCUCAUCGCUGGCGCCGGCUGGGCAACAUUCCGAGGGGACCGUCCCCUCGGUAAUGGCGAAUGGGACCCA       lower range
33  GGCCGGCAUGGUCCCAGCCUCCUCGCUGGCGCCGGCUGGGCAACAUUCCGAGGGGACCGUCCCCGCGGUAAAGGCGAAUGGGACCCA       upper range
34  AGCCGGCAUGGUCCCAGCCUCCUCGGUGGCGCCGGCUGGGCAACAUUCCGAGGGGACCGUCCCCUCGGUAAUGGCGAAUGGGACCCA       lower range
35  GGCCGACAUGGUCCCAGCCUCCUCGCUGGCGCCGGCUGGGCAACAUUCUGAGGGGACCGUCCCCUCGGUAAUGGCGAAUGGGACCCA      middle range
36  GGCCGGCAUGGUCCCAGCCUCCUCGCUGGGGCCGGCUGGGCAACAUUCCGAGGGGACCGUCCCCUCGGCAAUGGCGAAUGGGACCCA      middle range
37  GGCCGGCAUGGUCCCAGCCUCCUCGCUGGCGCCGGCUGGGCAACAUUCCGAGGGGACCGUACCCUCGGUAAUGGCGAAUGGGACCCA       upper range
38  GGCCGGCAUGGUCCCAGCCUCCUCGCUGGCGCCGGCUGGGCAACAUUCCGCGGGGACCGUCCCCUCGGUAAUGGCGAAUGCGACCCA      middle range
39  GGCAGGCAUGGUCCCAGCCUCCUCGCUGGCGCCGGCUGGGCAACAUUGCGAGGGGACCGUCCCCUCGGUAAUGGCGAAUGGGACCCA      middle range
40  GGCCGGCAUGGUCCCAGCCUCCUCGCUGGCGCCGGCUGGGCAACUUACCGAGGGGACCGUCCCCUCGGUAAUGGCGAAUGGGACCCA       upper range
41  GGCCGGCAUGGUCCCAGCCUCCACGCUGGCGCCGGCUGGGCAACAUUCCGAGGGGACCGUCCCCUCGGUAAUGGCGGAUGGGACCCA       upper range
42  GGCCGGCAUGGUCCCAGCUUCCUCGCUGGCGCCGGCUGGGCAACAUUCCGAGGGGACCGUCCCCCCGGUAAUGGCGAAUGGGACCCA      middle range
